# ASSAY PROCEDURE: Antiviral activity against HIV-1 in CEM cells
Non-standard residues stand in square brackets, D forms with d. Residues, ends and D or L forms follow the SMILES beside them. *: point of attachment. NAllylGly = C=CCNCC(=O)O; Boc = CC(C)(C)OC(=O)*
Please provide measured pIC50 for the entries that follow.
Conceptually, pIC50 converts a concentration in mol/L into minus its log10.

For record CC[C@H](C)[C@H](NC(=O)CN(CC(Br)CBr)C(=O)[C@H](Cc1ccccc1)NC(=O)OC(C)(C)C)C(=O)N[C@H](C(=O)OC)C(C)C (some centres undefined) the listed pIC50 is 4.25

Noted for C=CCN(CC(=O)N[C@H](C(=O)N[C@H](C(=O)OC)C(C)C)[C@@H](C)CC)C(=O)[C@H](Cc1ccccc1)NC(=O)[C@H](C)NC(=O)OC(C)(C)C (Boc-AF[NAllylGly]IV-OMe) : its pIC50 reads 4.27
